test description: viability loss with induced miR-34 in A549 – imaging, A549 dox-inducible miR-34, nuclei and caspase counts, primary screen (AID 1347080); also: test concentration not given here
test settings: A549 miR-34 inducible, Hoechst nuclei count, 48 h; measured here: relative caspase fold change +Dox/-Dox
readout name: fold change
// print number alone

fold change reported for this compound `O=[N+]([O-])c1ccc(-c2ccn[nH]2)cc1` : 0.744

fold change reported for this compound CC1(C)C(OC2OC(C(=O)O)C(O)C(O)C2OC2OC(C(=O)O)C(O)C(O)C2O)CC[C@@]2(C)[C@H]1CC[C@]1(C)[C@H]2C(=O)C=C2[C@H]3C[C@@](C)(C(=O)O)CC[C@]3(C)CC[C@]21C (stereo partly drawn) : 0.946

fold change reported for this compound `CCN(CCc1ccccn1)C(=O)c1cc(-c2cnc(N)nc2)nc2c(C)cccc12` : 1.79

fold change reported for this compound COc1cccc2c1C(=O)c1c(O)c3c(c(O)c1C2=O)C[C@@](O)(C(C)=O)CC3O[C@H]1CC(N)C(O)C(C)O1 (stereo partly drawn) : 0.948

fold change reported for this compound COC(=O)CN1CCN(c2ncnc3sccc23)C(C)C1=O (stereo not drawn) : 1.54

fold change reported for this compound `COc1ccc(CN(C)C(=O)Nc2nc(-c3ccccc3)ns2)cc1` : 1.46

fold change reported for this compound `CCCCc1nc2cc(C=CC(=O)NO)ccc2n1CCN(CC)CC` : 0.731

fold change reported for this compound `COc1ccc(C(=O)Nc2c(Cl)cncc2Cl)cc1OC1CCCC1` : 0.397

fold change reported for this compound `COc1ccc(CCC(=O)O)cc1OC` : 0.518

fold change reported for this compound C[C@]12C[C@@]3(O)O[C@@H](O1)[C@]1(COC(=O)c4ccccc4)[C@H]3C[C@@]12OC1OC(CO)C(O)C(O)C1O (stereo partly drawn) : 0.575

fold change reported for this compound C=C[C@@]1(C)CC(OC(=O)CSC2C[C@H]3CC[C@@H](C2)N3C)[C@]2(C)C(C)CC[C@]3(CCC(=O)[C@H]32)C(C)C1O (stereo partly drawn) : 1.2

fold change reported for this compound `CSCC[C@H](NC(=O)[C@H](Cc1ccccc1)NC[C@@H](NC[C@@H](N)CS)C(C)C)C(=O)O` : 1.07

fold change reported for this compound `Cc1cnc(NCCCn2cccn2)nc1-c1cnn(C)c1` : 1.64

fold change reported for this compound CCCCCC(O)/C=C/C=O (stereo not drawn) : 1.27

fold change reported for this compound `O=C(O)/C=C/c1cnc[nH]1` : 2.13

fold change reported for this compound `CNCCC=C1c2ccccc2C=Cc2ccccc21` : 1.27

fold change reported for this compound CC#C[C@@]1(O)CC[C@H]2[C@@H]3CCC4=CC(=O)CCC4=C3C(c3ccc(N(C)C)cc3)C[C@@]21C (stereo partly drawn) : 1.53

fold change reported for this compound `CC(C)n1cc(-c2cc(C(=O)N(C)Cc3cccnc3)c3cc(F)ccc3n2)cn1` : 1.63
